Test system: TALL-104 cells, ERK phosphorylation flow cytometry
protocol-summary: inhibitors of MAPKK activity via ERK phosphorylation, late-stage follow-up, mechanism study for lytic granule exocytosis inhibitor project, TALL-104 cells, flow cytometry, CherryPick01 (AID 720667)
particulars: stronger effect = higher value; dose or concentration not given here
Given measured inhibition, output Criterion met if it is greater than or equal to 40% and Criterion not met if not.

Use the examples below as a reference point.
{"compound": "CCN(CC)CCCNc1ccc(-c2nnc(-c3ccc(OCC(C)C)cc3)o2)cn1", "target-or-test-system": "TALL-104 cells, ERK phosphorylation flow cytometry", "category-label": "Criterion not met"}
{"compound": "CCCCC[C@@H](C)N1C[C@@H](COCc2ccccc2)Oc2cc(N3CC[C@H](N(C)C)C3)ccc2S1(=O)=O", "target-or-test-system": "TALL-104 cells, ERK phosphorylation flow cytometry", "category-label": "Criterion not met"}
{"compound": "CCOC(=O)c1c(NC(=O)COc2ccccc2OCC)sc2c1CC(C)(C)NC2(C)C", "target-or-test-system": "TALL-104 cells, ERK phosphorylation flow cytometry", "category-label": "Criterion met"}
{"compound": "Cc1cc(N2CCN(c3nc(-c4ccc([N+](=O)[O-])cc4)cs3)CC2)c2ccccc2n1", "target-or-test-system": "TALL-104 cells, ERK phosphorylation flow cytometry", "category-label": "Criterion met"}
{"compound": "O=C1CC(Sc2nnnn2-c2ccccc2)C(=O)N1c1cccc(Cl)c1 (stereo unspecified)", "target-or-test-system": "TALL-104 cells, ERK phosphorylation flow cytometry", "category-label": "Criterion met"}

Threshold query (inhibition >= 40%) on O=C(Cn1sc2ccccc2c1=O)NC12CC3CC(CC(C3)C1)C2
Criterion not met

Threshold query (inhibition >= 40%) on O=c1c2ccccc2sn1-c1ccccc1
Criterion not met

Threshold query (inhibition >= 40%) on COc1ccccc1CNc1nc(NCc2ccc(C(C)C)cc2)c2sccc2n1
Criterion not met

Threshold query (inhibition >= 40%) on N#Cc1c(Nc2ccccc2Cl)s[nH]c1=O
Criterion met

Threshold query (inhibition >= 40%) on CC1COCC(C)N1C1=C(Cl)C(=O)c2ccccc2C1=O (stereo unspecified)
Criterion not met

Entry source: PubChem BioAssay AID720667
